Measured MIC, listed per entry for reference.
System: Mycobacterium tuberculosis
assayExplanation: Antitubercular activity against Mycobacterium tuberculosis H37Rv after 4 days by microplate alamar blue assay
Assay type: functional
measurementConditions: 96 h

# annotated cases, reported MIC shown
CCCCCCCC#CCCCCC1CCC(=O)O1 (stereo not given) : 70.2 µM
CCCCCCNC(=O)C1=NOC(CCCCC2CCC(=O)O2)C1 (stereo not given) : > 128 µM
O=C1CCC(CCCCC2CC(C(=O)NCc3ccccc3)=NO2)O1 (stereo not given) : > 128 µM
CCN(CC)C(=O)C1=NOC(CCCCC2CCC(=O)O2)C1 (stereo not given) : > 128 µM
CCCCCCCC/C=C\CCCC[C@@H]1CCC(=O)O1 : 1.5 µg/mL

[in] Give its MIC value. Item: CCCCCCCC1=NOC(CCCCC2CCC(=O)O2)C1 (stereo not given)
[out] > 128 µM

[in] Same question for O=C1CCC(CCCCC2CC(C(=O)OCc3ccccc3)=NO2)O1 (stereo not given) please.
[out] > 128 µM

[in] Same question for CCCCCCNC(=O)c1cc(CCCCC2CCC(=O)O2)on1 (stereo not given) please.
[out] > 128 µM

[in] Same question for CC(C)(C)OC(=O)C1=NOC(CCCCC2CCC(=O)O2)C1 (stereo not given) please.
[out] > 128 µM

---

Measured MIC, listed per entry for reference.
Tested on: Mycobacterium tuberculosis
assayExplanation: Antitubercular activity against Mycobacterium tuberculosis H37Rv after 4 days by microplate alamar blue assay
Assay type: functional
measurementConditions: 96 h

# annotated cases, reported MIC shown
CCCCCCCC/C=C\CCCCC1CCC(=O)O1 (racemic) : 6.9 µM
CCCCCCCC1=NOC(CCCC2CCC(=O)O2)C1 (stereo unspecified) : > 128 µM
CCCCCCC1=NOC(CCCCC2CCC(=O)O2)C1 (stereo unspecified) : > 128 µM
CCCCCCOC(=O)C1=NOC(CCCCC2CCC(=O)O2)C1 (stereo unspecified) : 63.1 µM
CCCCCCC/C=C\CCCCC1CCC(=O)O1 (stereo unspecified) : 14.7 µM

[in] Give its MIC value. Item: CCCCCCCCNC(=O)CCCCC1CCC(=O)O1 (stereo unspecified)
[out] > 128 µM

[in] Same question for CCCCCCCCC(=O)NCCCCC1CCC(=O)O1 (stereo unspecified) please.
[out] > 128 µM

[in] Same question for CCCCCCC1=NOC(CCCC2CCC(=O)O2)C1 (stereo unspecified) please.
[out] > 128 µM

[in] Same question for O=C1CCC(CCCCC2CC(C(=O)O)=NO2)O1 (stereo unspecified) please.
[out] > 128 µM

[in] Same question for CCCCCCCC(=O)NCCCCC1CCC(=O)O1 (stereo unspecified) please.
[out] > 128 µM

[in] Same question for CCOC(=O)C1=NOC(CCCCC2CCC(=O)O2)C1 (stereo unspecified) please.
[out] > 128 µM

[in] Same question for CCCCCCCc1cc(CCCCC2CCC(=O)O2)on1 (stereo unspecified) please.
[out] 63.4 µM

[in] Same question for CCCCCCCCCCCCCCC1CCC(=O)O1 (stereo unspecified) please.
[out] > 128 µM

[in] Same question for CCCCCCCC/C=C/CCCCC1CCC(=O)O1 (stereo unspecified) please.
[out] 19.7 µM

[in] Same question for CCCCCCCCC#CCCCCC1CCC(=O)O1 (stereo unspecified) please.
[out] 44 µM

[in] Same question for CCOC(=O)c1cc(CCCCC2CCC(=O)O2)on1 (stereo unspecified) please.
[out] > 128 µM

Ref: ChEMBL document CHEMBL1141707
